Answer each item with its documented inhibition.
- test-summary: parental Ba/F3 cell viability inhibition, counter-screen for JAK2V617F inhibitor project, murine pro-B, CellTiter-Glo luminescence (AID 1486);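 note: 0% = DMSO wells and 100% = JAK Inhibitor I control wells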
- study-conditions: CellTiter-Glo ATP luminescence, at 5.6 µM, stronger effect = higher value
The whole screen tested about 220,000 compounds, of which about 2,400 (1.1%) were called active. The sample as a whole holds a higher share of actives than the screen did.
One number for each entry, in %.

Solved cases below.
[
  {
    "smiles": "c1ccc(Cc2cc[n+](Cc3ccccc3)cc2)cc1",
    "output-unit": "%",
    "inhibition": 71.7
  },
  {
    "smiles": "CCn1c(SCC(=O)Nc2sc(C)c(C)c2C#N)nnc1C1CC1",
    "output-unit": "%",
    "inhibition": -1.4
  }
]

For each listed entry, give its inhibition.
1. C=CCOCCN(C)C1=NS(=O)(=O)c2ccccc21
2. CN1/C(=C\C(=O)c2oc3ccccc3c2N)C(C)(C)c2ccccc21

### Response
3.69
10.9

Reference for the values: PubChem BioAssay AID1486
